# ASSAY OVERVIEW: self-splicing fitness, log relative to wild type (ln ratio); higher = more splicing; Tetrahymena group I intron in knt gene, E. coli kanamycin selection, DiMSum; sequences stand for … in CUCUCU…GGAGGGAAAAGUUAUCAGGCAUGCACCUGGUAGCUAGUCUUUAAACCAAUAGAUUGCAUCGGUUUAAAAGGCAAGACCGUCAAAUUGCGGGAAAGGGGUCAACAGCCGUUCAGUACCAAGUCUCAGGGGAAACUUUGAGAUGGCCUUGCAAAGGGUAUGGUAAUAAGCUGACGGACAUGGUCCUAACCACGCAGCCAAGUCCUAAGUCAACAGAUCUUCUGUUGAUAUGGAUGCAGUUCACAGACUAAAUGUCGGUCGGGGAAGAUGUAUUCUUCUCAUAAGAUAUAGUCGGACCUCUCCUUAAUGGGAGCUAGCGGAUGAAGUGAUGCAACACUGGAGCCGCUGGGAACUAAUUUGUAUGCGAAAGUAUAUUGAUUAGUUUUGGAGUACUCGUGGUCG;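 further: selection with 25 µg/mL kanamycin versus none on LB agar overnight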
# ASSAY CONTEXT: 30 °C
MEASUREMENT KIND: self-splicing fitness (ln)

BIOPOLYMER SEQUENCE | MEASUREMENT KIND | ASSAY VALUE
ACUUAGCAAUAUUACGACCC | self-splicing fitness (ln) | 0.555
ACGCAGCAAUAUUACGUCUC | self-splicing fitness (ln) | -3.88
GACUAGCAAUAUUACGUGGG | self-splicing fitness (ln) | -3.35
UUUAAGCAAUAUUACGAGAU | self-splicing fitness (ln) | -3.92
AGUUAGCAAUAUUACGUGAG | self-splicing fitness (ln) | -1.53
UUCCAGCAAUAUUACGCGCC | self-splicing fitness (ln) | -2.72
CUCGAGCAAUAUUACGGAAU | self-splicing fitness (ln) | -3.24
UCACAGCAAUAUUACGGAUC | self-splicing fitness (ln) | -4.77
CUCGAGCAAUAUUACGGCGG | self-splicing fitness (ln) | -1.2
CGCUAGCAAUAUUACGAAUU | self-splicing fitness (ln) | -2.77
UAUGAGCAAUAUUACGAUCG | self-splicing fitness (ln) | -1.79
CUGAAGCAAUAUUACGGCUC | self-splicing fitness (ln) | -2.75
UAAAAGCAAUAUUACGCAUG | self-splicing fitness (ln) | -0.716
CACUAGCAAUAUUACGUCCC | self-splicing fitness (ln) | -2.5
CGAAAGCAAUAUUACGCUUU | self-splicing fitness (ln) | -3.54
CACCAGCAAUAUUACGGUUC | self-splicing fitness (ln) | -2.02
GCGUAGCAAUAUUACGAAGC | self-splicing fitness (ln) | -3.48
AAGUAGCAAUAUUACGGGCA | self-splicing fitness (ln) | -1.25
UAUGAGCAAUAUUACGAAUU | self-splicing fitness (ln) | -2.36
UUUGAGCAAUAUUACGCAGG | self-splicing fitness (ln) | -2.99
UUGAAGCAAUAUUACGAUGU | self-splicing fitness (ln) | -1.61
CCCUAGCAAUAUUACGUCGG | self-splicing fitness (ln) | -3.32
UGGCAGCAAUAUUACGGUUC | self-splicing fitness (ln) | -2.14
CCGCAGCAAUAUUACGGAGA | self-splicing fitness (ln) | -2.53
CUAAAGCAAUAUUACGUCGG | self-splicing fitness (ln) | -0.261
CGGCAGCAAUAUUACGGCCC | self-splicing fitness (ln) | -1.31
AUUCAGCAAUAUUACGCAGG | self-splicing fitness (ln) | -1.26
GAUCAGCAAUAUUACGAGUC | self-splicing fitness (ln) | -3.31
UGCGAGCAAUAUUACGAAUC | self-splicing fitness (ln) | -4.3
GAAGAGCAAUAUUACGGCCG | self-splicing fitness (ln) | -2.63
GGUUAGCAAUAUUACGAAUU | self-splicing fitness (ln) | 0.0573
ACGCAGCAAUAUUACGGGGC | self-splicing fitness (ln) | -3.8
UUCGAGCAAUAUUACGGCGC | self-splicing fitness (ln) | -2.99
GAUGAGCAAUAUUACGGUCU | self-splicing fitness (ln) | -3.87
ACAUAGCAAUAUUACGACGC | self-splicing fitness (ln) | -0.172
AAAUAGCAAUAUUACGUAGC | self-splicing fitness (ln) | -3.97
CCUGAGCAAUAUUACGUUCU | self-splicing fitness (ln) | -3.63
UCAAAGCAAUAUUACGUAGC | self-splicing fitness (ln) | -4
AACAAGCAAUAUUACGGUGG | self-splicing fitness (ln) | -1.84
UAUAAGCAAUAUUACGCUGG | self-splicing fitness (ln) | -1.44
UUCGAGCAAUAUUACGCAUC | self-splicing fitness (ln) | -2.83
UUUAAGCAAUAUUACGAGCG | self-splicing fitness (ln) | -0.94
UGCUAGCAAUAUUACGGUGG | self-splicing fitness (ln) | -1.94
CAGAAGCAAUAUUACGUAAU | self-splicing fitness (ln) | -3.4
AGCAAGCAAUAUUACGUGUC | self-splicing fitness (ln) | -3.85
CUACAGCAAUAUUACGGAUU | self-splicing fitness (ln) | -3.46
UUGGAGCAAUAUUACGUAUG | self-splicing fitness (ln) | -3.25
UCGUAGCAAUAUUACGCAGU | self-splicing fitness (ln) | -3.54
AUGAAGCAAUAUUACGCAAA | self-splicing fitness (ln) | -2.25
UCGUAGCAAUAUUACGAAAG | self-splicing fitness (ln) | -3.1
UGUGAGCAAUAUUACGUCGC | self-splicing fitness (ln) | -1.15
AAGUAGCAAUAUUACGUUUC | self-splicing fitness (ln) | -3.93

###

# ASSAY OVERVIEW: self-splicing fitness, log relative to wild type (ln ratio); higher = more splicing; Tetrahymena group I intron in knt gene, E. coli kanamycin selection, DiMSum; sequences stand for … in CUCUCU…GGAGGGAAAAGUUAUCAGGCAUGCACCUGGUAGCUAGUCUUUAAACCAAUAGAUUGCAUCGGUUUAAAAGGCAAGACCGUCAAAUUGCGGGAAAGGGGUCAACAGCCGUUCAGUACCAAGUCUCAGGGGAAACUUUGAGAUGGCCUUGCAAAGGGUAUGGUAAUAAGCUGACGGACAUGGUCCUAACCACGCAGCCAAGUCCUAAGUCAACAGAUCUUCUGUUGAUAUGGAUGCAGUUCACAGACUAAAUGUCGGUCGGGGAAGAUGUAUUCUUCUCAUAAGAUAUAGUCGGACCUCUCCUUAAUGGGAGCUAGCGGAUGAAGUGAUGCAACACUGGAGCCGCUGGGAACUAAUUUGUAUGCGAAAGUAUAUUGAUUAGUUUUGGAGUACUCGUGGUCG
# ASSAY CONTEXT: 37 °C

BIOPOLYMER SEQUENCE | self-splicing fitness (ln)
AAUUAGCAAUAUUACGUGUG | -0.784
CCCGAGCAAUAUUACGCACC | -2.35
AAUCAGCAAUAUUACGCUAG | 0.121
GCGUAGCAAUAUUACGCGCG | -2.42
GCUUAGCAAUAUUACGUCCA | -0.697
UCUAAGCAAUAUUACGUGCA | -0.538
GGCUAGCAAUAUUACGCAGA | -0.502
UCACAGCAAUAUUACGCUCA | -0.171
UGUCAGCAAUAUUACGAUCC | -0.717
UCCUAGCAAUAUUACGACAA | -2.04

###

# ASSAY OVERVIEW: self-splicing fitness, log relative to wild type (ln ratio); higher = more splicing; Tetrahymena group I intron in knt gene, E. coli kanamycin selection, DiMSum; sequences stand for … in CUCUCU…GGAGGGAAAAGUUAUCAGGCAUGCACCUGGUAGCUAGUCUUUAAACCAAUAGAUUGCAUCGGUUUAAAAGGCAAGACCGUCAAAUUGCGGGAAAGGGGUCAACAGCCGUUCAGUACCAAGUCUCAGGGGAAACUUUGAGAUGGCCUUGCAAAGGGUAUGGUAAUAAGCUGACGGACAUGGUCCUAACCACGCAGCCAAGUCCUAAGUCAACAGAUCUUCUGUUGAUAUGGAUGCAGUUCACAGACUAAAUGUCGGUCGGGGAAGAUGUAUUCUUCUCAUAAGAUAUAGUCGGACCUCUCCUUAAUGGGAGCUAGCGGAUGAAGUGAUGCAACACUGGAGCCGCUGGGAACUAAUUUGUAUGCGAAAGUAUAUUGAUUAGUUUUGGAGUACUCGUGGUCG
# ASSAY CONTEXT: 30 °C
Quick list: self-splicing fitness (ln) per entry.

BIOPOLYMER SEQUENCE | self-splicing fitness (ln)
GACGAGCAAUAUUACGCCGU | -2.58
GAUUAGCAAUAUUACGUCUG | -2.47
GAAGAGCAAUAUUACGGGAU | -3.63
ACUUAGCAAUAUUACGUCUG | -1.82
GGUGAGCAAUAUUACGAUUC | -0.904
GACAAGCAAUAUUACGAAUA | -2.03
GUGCAGCAAUAUUACGGACC | -0.711
UUGUAGCAAUAUUACGGACU | -1.65
UAUAAGCAAUAUUACGACCU | 0.317
CUUUAGCAAUAUUACGACGU | -3.69
GAUUAGCAAUAUUACGGAAC | -2.84
AAUUAGCAAUAUUACGAGAG | -3.43
CAAUAGCAAUAUUACGCUUA | -2.06
GAGCAGCAAUAUUACGAAGC | -3.93
GCGAAGCAAUAUUACGUUCA | -1.03
GCGCAGCAAUAUUACGGCCC | -1.21
CCCGAGCAAUAUUACGGCAA | -3.03
CUUUAGCAAUAUUACGAUCG | 0.191
UUACAGCAAUAUUACGGAUU | -3.81
GAGGAGCAAUAUUACGGACG | -3.42
ACACAGCAAUAUUACGGCAC | -1.6
UUUCAGCAAUAUUACGUGUU | -3.42
GCCUAGCAAUAUUACGUUCG | -2.74
GGCAAGCAAUAUUACGAGCC | -2.21
GACAAGCAAUAUUACGAUUA | -0.415
GGUAAGCAAUAUUACGUCUC | -1.04
CCGCAGCAAUAUUACGUGCG | -4.67
UGGCAGCAAUAUUACGGCAC | -2.27
UUGGAGCAAUAUUACGAUCA | 0.364
AUGAAGCAAUAUUACGCCUA | 0.118
GAUGAGCAAUAUUACGGACA | -2.22
UUGAAGCAAUAUUACGAGCG | -0.107
GGUGAGCAAUAUUACGCACU | -3.35

meta.source: the supplement of paper PMC7877785
